// cross-study collection: IC50 for UniProtKB A0A3Q1MT31
measured quantity: IC50 (nM)

Worked cases, IC50 given:
Quick one: IC50 for O=c1cc(-c2ccncc2)nc(-c2ccccn2)[nH]1 ?
3800

Repeat for the following compound: Cn1c(N2CCO[C@@H](c3c(F)cccc3Cl)C2)nc(-c2ccncc2F)cc1=O
1.4

Repeat for the following compound: Cn1c(N2CCOC(c3ccc(F)cc3O)C2)nc(-c2ccncn2)cc1=O (centres unmarked)
7.4

Repeat for the following compound: Cn1c(N2CCOC(c3cccc(N4CCCC4)c3)C2)nc(-c2ccncc2)cc1=O (single isomer, unassigned)
40

Repeat for the following compound: Cc1ccccc1C1CN(c2nc(-c3ccncc3)cc(=O)n2C)CCO1 (centres unmarked)
6

Repeat for the following compound: COc1cc(-c2ccccc2F)ccc1C1CN(c2nc(-c3ccncn3)cc(=O)n2C)CCO1 (centres unmarked)
1.4

Repeat for the following compound: Cc1ccc(Cc2nc(-c3ccncc3)cc(=O)[nH]2)cc1
2900

Repeat for the following compound: COc1cccc(-c2ccc(OC)c(C3CN(c4nc(-c5ccncn5)cc(=O)n4C)CCO3)c2)n1 (centres unmarked)
0.84

I. CCOc1ccccc1C1CN(c2nc(-c3ccncc3)cc(=O)n2C)CCO1 (centres unmarked)
II. Cn1c(N2CCC=C(c3ccccc3F)C2)nc(-c2ccncc2)cc1=O
III. COc1ccc(-c2cccnc2)cc1C1CN(c2nc(-c3ccncn3)cc(=O)n2C)CCO1 (centres unmarked)
Give the ascending ranking of the items by reported IC50. Output spec: labels arranged per the requested ranking.
III, II, I

P. CN(c1ccc([C@H]2CN(c3nc(-c4ccncc4F)cc(=O)n3C)CCO2)cc1)[C@@H]1CCOC1
Q. Cn1c(N2CCO[C@H](c3c(Cl)cccc3Cl)C2)nc(-c2ccncc2)cc1=O
Identify the entry with the smaller IC50: P or Q . Your answer should be the label of the entry you select.
P
(P: 3.9 nM, Q: 50 nM)

###

// cross-study collection: pIC50 for bovine cerebral TPK1 (Bos taurus)
pIC50: −log10 of the molar value.
measured quantity: pIC50

Worked cases, pIC50 given:
Quick one: pIC50 for Cn1c(N2CCC(C(=O)c3ccc(-c4ccccc4)cc3)CC2)nc(-c2ccncc2)cc1=O ?
8.11

Repeat for the following compound: COc1ccccc1C1CN(c2nc(-c3ccncc3)cc(=O)n2C)CCO1 (centres unmarked)
8.96

Repeat for the following compound: CCCCc1nc(-c2ccncc2)cc(=O)[nH]1
5.89

Repeat for the following compound: Cn1c(N2CCC=C(c3ccc(C(=O)N4CCCC4)cc3)C2)nc(-c2ccncc2)cc1=O
7.62

Repeat for the following compound: COc1cc(F)ccc1[C@@H]1CN(c2nc(-c3ccncc3)cc(=O)n2C)CCO1
8.05

1. O=c1cc(-c2ccncc2)nc(Cc2ccccc2)[nH]1
2. CC(C)c1nc(-c2ccncc2)cc(=O)[nH]1
Sort 1 and 2 by pIC50 descending and give the first. Your answer should be the label of the entry you select.
1

###

// cross-study collection: IC50 for bovine cerebral TPK1 (Bos taurus)
measured quantity: IC50 (nM)

Quick one: IC50 for COc1cc(-c2cccc(F)c2)ccc1C1CN(c2nc(-c3ccncn3)cc(=O)n2C)CCO1 (stereo not shown) ?
1.1

1. Cn1c(N2CCN[C@@H](c3ccc(N4CCCCC4)cc3)C2)nc(-c2ccncc2F)cc1=O
2. Cn1c(N2CCC=C(c3ccccc3C(F)(F)F)C2)nc(-c2ccncc2)cc1=O
3. Cn1c(N2CCC=C(c3ccccc3F)C2)nc(-c2ccncn2)cc1=O
Reorder: IC50, max to min. Output spec: labels arranged per the requested ranking.
2, 1, 3
(2: 31 nM, 1: 3.7 nM, 3: 1.1 nM)

###

// cross-study collection: IC50 for UniProtKB A0A3Q1MT31
measured quantity: IC50 (nM)

Worked cases, IC50 given:
Quick one: IC50 for Cn1c(N2CCOC(c3c(F)cccc3Cl)C2)nc(-c2ccncn2)cc1=O (centres unmarked) ?
0.74

Repeat for the following molecule: Cn1c(N2CCC(C(=O)c3ccccc3-c3ccccc3)CC2)nc(-c2ccncc2)cc1=O
13

Repeat for the following molecule: COc1cc(-c2ccccc2F)ccc1C1CN(c2nc(-c3ccncc3)cc(=O)n2C)CCO1 (centres unmarked)
2

Repeat for the following molecule: Cn1c(N2CCOC(c3cc(F)c(F)cc3Cl)C2)nc(-c2ccncc2)cc1=O (centres unmarked)
2.8

Repeat for the following molecule: COc1cccc(N[C@@H]2CCN(c3nc(-c4ccncn4)cc(=O)n3C)C2)c1
7.9

Repeat for the following molecule: COc1cccc(Nc2nc(-c3ccncc3)cc(=O)[nH]2)c1
1800

I. Cn1c(N2CCOC(c3nc4ccccc4s3)C2)nc(-c2ccncn2)cc1=O (centres unmarked)
II. Cn1c(N2CCC=C(c3ccc(F)cc3F)C2)nc(-c2ccncn2)cc1=O
Identify the entry with the smaller IC50: I or II . Your answer should be the label of the entry you select.
II

###

pIC50: −log10 of the molar value.
// cross-study collection: pIC50 for bovine cerebral TPK1 (Bos taurus)
measured quantity: pIC50

Worked cases, pIC50 given:
What pIC50 appears in the records for this compound with bovine cerebral TPK1 (Bos taurus)? Cn1c(N2CCO[C@@H](c3ccc(NC(=O)C4CCCCC4)cc3)C2)nc(-c2ccncc2F)cc1=O
8.66

Repeat for the following compound: Cn1c(NCC(=O)c2ccccc2)nc(-c2ccncc2)cc1=O
8.05

Repeat for the following compound: COc1cccc([C@H]2CN(c3nc(-c4ccncn4)cc(=O)n3C)CCO2)c1
8.34

Repeat for the following compound: Cc1ccc(-c2nc(-c3ccncc3)cc(=O)[nH]2)cc1
5.32

Repeat for the following compound: Cn1c(N2CCOC(C(=O)c3ccccc3)C2)nc(-c2ccncn2)cc1=O (single isomer, unassigned)
7.42

1. Cn1c(N2CCO[C@H]3c4ccccc4OC[C@H]32)nc(-c2ccncn2)cc1=O
2. COc1ccc(C2=CCCN(c3nc(-c4ccncn4)cc(=O)n3C)C2)cc1
Sort 1 and 2 by pIC50 descending and give the first. Your answer should be the label of the entry you select.
1
(1: 8.60, 2: 8.11)

I. Cn1c(NCC(=O)c2cccc(F)c2)nc(-c2ccncn2)cc1=O
II. C[C@@H]1CN(c2ncccn2)CCN1c1nc(-c2ccncc2F)cc(=O)n1C
III. Cn1c(N2CCO[C@@H](c3ccc(OCCCN4CCCC4)cc3)C2)nc(-c2ccncn2)cc1=O
Give the ascending ranking of the items by reported pIC50. Output spec: labels arranged per the requested ranking.
I, II, III

P. COc1cc(F)ccc1[C@H]1CN(c2nc(-c3ccncn3)cc(=O)n2C)CCO1
Q. CN(C)c1nc(-c2ccncc2)cc(=O)[nH]1
Sort P and Q by pIC50 descending and give the first. Your answer should be the label of the entry you select.
P
(P: 9.33, Q: 5.43)

###

pIC50: −log10 of the molar value.
// cross-study collection: pIC50 for bovine cerebral TPK1 (Bos taurus, UniProt A0A3Q1MT31)
measured quantity: pIC50

Quick one: pIC50 for CNc1cc(-c2cc(=O)n(C)c(N3CCO[C@@H](c4cc(C#N)ccc4OC)C3)n2)ccn1 ?
7.89

I. Cn1c(N2CCC(C(=O)c3cccs3)CC2)nc(-c2ccncc2)cc1=O
II. O=c1cc(-c2ccncc2)nc(NCc2ccccc2)[nH]1
III. Cn1c(N2CCO[C@@H](c3cccc4c3OCC4)C2)nc(-c2ccncn2)cc1=O
IV. Cn1c(N2CCOC3(CCOc4ccccc43)C2)nc(-c2ccncn2)cc1=O (centres unmarked)
Give the ascending ranking of the items by reported pIC50. Output spec: labels arranged per the requested ranking.
II, I, IV, III

###

// cross-study collection: IC50 for bovine cerebral TPK1 (Bos taurus)
measured quantity: IC50 (nM)

Worked cases, IC50 given:
What IC50 appears in the records for this compound with bovine cerebral TPK1 (Bos taurus)? COc1ccc2c(c1)CC[C@H]1[C@H]2OCCN1c1nc(-c2ccncc2F)cc(=O)n1C
1.1

Repeat for the following compound: Cn1c(N2CCOC(c3cccc4c3OCC4)C2)nc(-c2ccncn2)cc1=O (stereo not shown)
0.821

I. COc1cc(Cl)ccc1C1CN(c2nc(-c3ccncn3)cc(=O)n2C)CCO1 (stereo not shown)
II. CN(C)C(=O)Nc1ccc([C@H]2CN(c3nc(-c4ccncc4F)cc(=O)n3C)CCO2)cc1
Sort I and II by IC50 descending and give the first. Your answer should be the label of the entry you select.
II

###

// cross-study collection: IC50 for UniProt:A0A3Q1MT31
measured quantity: IC50 (nM)

Quick one: IC50 for CC(=O)N1CCC(Oc2ccc([C@H]3CN(c4nc(-c5ccncc5F)cc(=O)n4C)CCO3)cc2)CC1 ?
6.4

Repeat for the following compound: CN(C)CC(=O)Nc1ccc([C@H]2CN(c3nc(-c4ccncc4F)cc(=O)n3C)CCO2)cc1
0.27

Repeat for the following compound: Cn1c(N2CCOC(c3cccc(N4CCCC4)c3)C2)nc(-c2ccncn2)cc1=O (single isomer, unassigned)
4.8

Repeat for the following compound: Cn1c(N2CCC=C(c3ccc(F)cc3F)C2)nc(-c2ccncc2)cc1=O
17

Repeat for the following compound: Cn1c(N2CCO[C@@H](c3ccc(NC(=O)CN4CCN(c5ccccc5)CC4)cc3)C2)nc(-c2ccncc2)cc1=O
5.2

Repeat for the following compound: O=c1cc(-c2ccncc2)nc(-c2ccc(O)cc2)[nH]1
1700

A. COc1ccc(C2CN(c3nc(-c4ccncn4)cc(=O)n3C)CC(C)(C)O2)cc1 (stereo not drawn)
B. Cn1c(N2CCO[C@@H](c3ccc(N)cc3)C2)nc(-c2ccncc2F)cc1=O
Sort A and B by IC50 descending and give the first. Your answer should be the label of the entry you select.
A

A. COc1cccc(OC)c1C1CN(c2nc(-c3ccncn3)cc(=O)n2C)CCO1 (stereo not drawn)
B. Cn1c(N2CCC(c3ccc(N4CCCC4)cc3)CC2)nc(-c2ccncc2F)cc1=O
Identify the entry with the smaller IC50: A or B . Your answer should be the label of the entry you select.
A
(A: 0.441 nM, B: 6.4 nM)

A. O=c1cc(-c2ccncn2)nc(N2CCO[C@@H](c3ccc(F)cc3)C2)[nH]1
B. Cn1c(N2CCC=C(c3ccc(F)cc3)C2)nc(-c2ccncn2)cc1=O
Sort A and B by IC50 descending and give the first. Your answer should be the label of the entry you select.
A

a. Cn1c(N2CCOC(c3ccccc3OCC3CC3)C2)nc(-c2ccncn2)cc1=O (stereo not drawn)
b. Cn1c(N2CCO[C@@H](c3cc4ccccc4o3)C2)nc(-c2ccncn2)cc1=O
Identify the entry with the smaller IC50: a or b . Your answer should be the label of the entry you select.
b
